System: Plasma
method: Fraction unbound in rat plasma
Assay type: ADME, cell-free
attribute_measured: Fu (%)
Reply with just the number (in %).

Known results for compounds:
{"mol_smiles": "N#Cc1ncccc1N1C[C@H]2CN(C(=O)C34CC5CC(CC(C5)C3)C4)C[C@H]2C1", "attribute_measured": "Fu", "unit_tag": "%", "numeric_value": 4.5}
{"mol_smiles": "O=C(N1C[C@@H]2CN(c3cccc(F)n3)C[C@@H]2C1)C12CC3CC(CC(C3)C1)C2", "attribute_measured": "Fu", "unit_tag": "%", "numeric_value": 1.2}
{"mol_smiles": "N#Cc1ccccc1N1C[C@H]2CN(C(=O)C34CC5CC(CC(C5)C3)C4)C[C@H]2C1", "attribute_measured": "Fu", "unit_tag": "%", "numeric_value": 1.4}
{"mol_smiles": "O=C(N1C[C@@H]2CN(c3ccccn3)C[C@@H]2C1)C12CC3CC(CC(C3)C1)C2", "attribute_measured": "Fu", "unit_tag": "%", "numeric_value": 2.9}
{"mol_smiles": "O=C(N1C[C@@H]2CN(c3cnccn3)C[C@@H]2C1)C12CC3CC(CC(C3)C1)C2", "attribute_measured": "Fu", "unit_tag": "%", "numeric_value": 10.3}
{"mol_smiles": "O=C(N1CCC2(CCCCC2)CC1)N1C[C@@H]2CN(c3ccccn3)C[C@@H]2C1", "attribute_measured": "Fu", "unit_tag": "%", "numeric_value": 1.5}

Can you share its Fu? I mean this compound: "O=C(N1C[C@@H]2CN(c3ccccn3)C[C@@H]2C1)N1CCC2(CCCC2)C1" 9

Item under review: "O=C(N1C[C@@H]2CN(c3ccc(F)cn3)C[C@@H]2C1)C12CC3CC(CC(C3)C1)C2" . Reported Fu? 1.5
